assayRemarks: self-splicing fitness, log relative to wild type (ln ratio); higher = more splicing; Tetrahymena group I intron in knt gene, E. coli kanamycin selection, DiMSum; sequences stand for … in CUCUCU…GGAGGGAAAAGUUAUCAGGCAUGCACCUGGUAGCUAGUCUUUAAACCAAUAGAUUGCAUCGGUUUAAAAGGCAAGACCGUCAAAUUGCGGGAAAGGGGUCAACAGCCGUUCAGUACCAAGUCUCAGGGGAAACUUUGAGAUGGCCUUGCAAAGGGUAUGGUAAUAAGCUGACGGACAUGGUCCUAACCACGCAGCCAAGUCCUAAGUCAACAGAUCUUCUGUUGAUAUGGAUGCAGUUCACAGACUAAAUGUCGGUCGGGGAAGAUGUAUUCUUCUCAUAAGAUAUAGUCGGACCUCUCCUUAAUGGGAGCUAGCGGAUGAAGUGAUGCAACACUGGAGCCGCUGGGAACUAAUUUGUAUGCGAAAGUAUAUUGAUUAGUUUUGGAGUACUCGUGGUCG;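 further: selection with 25 µg/mL kanamycin versus none on LB agar overnight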
experimentalParameters: 37 °C
recordedEndpoint: self-splicing fitness (ln)
A bare number is all that is needed in reply.

Consider the following illustrative entries.
CUUUAGCAAUAUUACGUAAC = -1.64
GAGCAGCAAUAUUACGCAGC = -2.61

Q: Entry UACUAGCAAUAUUACGAACA has what self-splicing fitness (ln)?
Ans: -0.55

Q: Entry GGGUAGCAAUAUUACGAACG has what self-splicing fitness (ln)?
Ans: -0.292

Q: Entry ACGAAGCAAUAUUACGAGUC has what self-splicing fitness (ln)?
Ans: -2.21

Q: Entry AAGUAGCAAUAUUACGCGAC has what self-splicing fitness (ln)?
Ans: -1.7

Q: Entry ACGGAGCAAUAUUACGCGGU has what self-splicing fitness (ln)?
Ans: -1.03

Q: Entry UCCAAGCAAUAUUACGGGGC has what self-splicing fitness (ln)?
Ans: -3.13

* * *

assayRemarks: self-splicing fitness, log relative to wild type (ln ratio); higher = more splicing; Tetrahymena group I intron in knt gene, E. coli kanamycin selection, DiMSum; sequences stand for … in CUCUCU…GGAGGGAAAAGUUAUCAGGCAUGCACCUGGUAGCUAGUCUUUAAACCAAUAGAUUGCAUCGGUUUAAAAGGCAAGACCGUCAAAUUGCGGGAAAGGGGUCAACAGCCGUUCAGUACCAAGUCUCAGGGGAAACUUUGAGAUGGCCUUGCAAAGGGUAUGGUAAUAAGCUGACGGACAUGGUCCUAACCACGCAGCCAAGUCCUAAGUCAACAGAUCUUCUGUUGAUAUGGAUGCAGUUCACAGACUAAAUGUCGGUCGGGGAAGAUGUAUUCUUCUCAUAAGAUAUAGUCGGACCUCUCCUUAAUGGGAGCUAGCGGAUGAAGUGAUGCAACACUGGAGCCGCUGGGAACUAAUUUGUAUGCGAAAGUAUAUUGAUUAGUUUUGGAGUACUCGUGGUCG
experimentalParameters: 30 °C
Measured self-splicing fitness (ln) values are reported for all entries that follow.

Consider the following illustrative entries.
GCAUAGCAAUAUUACGCAAU = -2.37
GCCGAGCAAUAUUACGGUCG = -3.63
UAACAGCAAUAUUACGUGUG = -1.23
UAAUAGCAAUAUUACGAACC = -3.22

Q: Entry UUAUAGCAAUAUUACGGAGA has what self-splicing fitness (ln)?
Ans: -2.04

Q: Entry AAUCAGCAAUAUUACGCGGU has what self-splicing fitness (ln)?
Ans: -2.35

Q: Entry CUCAAGCAAUAUUACGAACU has what self-splicing fitness (ln)?
Ans: -3.03

Q: Entry GAGCAGCAAUAUUACGCCGU has what self-splicing fitness (ln)?
Ans: -1.39

Q: Entry UCAGAGCAAUAUUACGUCAG has what self-splicing fitness (ln)?
Ans: -2.84

* * *

assayRemarks: self-splicing fitness, log relative to wild type (ln ratio); higher = more splicing; Tetrahymena group I intron in knt gene, E. coli kanamycin selection, DiMSum; sequences stand for … in CUCUCU…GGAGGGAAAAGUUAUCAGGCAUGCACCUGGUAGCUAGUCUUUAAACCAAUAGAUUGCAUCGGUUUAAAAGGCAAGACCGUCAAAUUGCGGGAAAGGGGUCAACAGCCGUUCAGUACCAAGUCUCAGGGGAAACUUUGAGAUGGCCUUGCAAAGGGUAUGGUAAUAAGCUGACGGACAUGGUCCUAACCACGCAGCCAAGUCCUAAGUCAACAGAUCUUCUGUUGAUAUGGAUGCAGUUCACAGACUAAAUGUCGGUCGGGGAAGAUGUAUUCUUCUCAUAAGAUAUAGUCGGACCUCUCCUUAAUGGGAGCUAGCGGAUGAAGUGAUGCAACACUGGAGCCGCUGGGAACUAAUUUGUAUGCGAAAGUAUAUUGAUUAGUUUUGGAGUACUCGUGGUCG
experimentalParameters: 37 °C
recordedEndpoint: self-splicing fitness (ln)
A bare number is all that is needed in reply.

Consider the following illustrative entries.
GAUGAGCAAUAUUACGUUCG = -0.925
AUGAAGCAAUAUUACGUUGU = -0.91
GUCAAGCAAUAUUACGGUCU = -0.906

Next sequence, please.
Q: Entry GUCUAGCAAUAUUACGAGCA has what self-splicing fitness (ln)?
Ans: -0.906

* * *

Measured self-splicing fitness (ln) values are reported for all entries that follow.
assayRemarks: self-splicing fitness, log relative to wild type (ln ratio); higher = more splicing; Tetrahymena group I intron in knt gene, E. coli kanamycin selection, DiMSum; sequences stand for … in CUCUCU…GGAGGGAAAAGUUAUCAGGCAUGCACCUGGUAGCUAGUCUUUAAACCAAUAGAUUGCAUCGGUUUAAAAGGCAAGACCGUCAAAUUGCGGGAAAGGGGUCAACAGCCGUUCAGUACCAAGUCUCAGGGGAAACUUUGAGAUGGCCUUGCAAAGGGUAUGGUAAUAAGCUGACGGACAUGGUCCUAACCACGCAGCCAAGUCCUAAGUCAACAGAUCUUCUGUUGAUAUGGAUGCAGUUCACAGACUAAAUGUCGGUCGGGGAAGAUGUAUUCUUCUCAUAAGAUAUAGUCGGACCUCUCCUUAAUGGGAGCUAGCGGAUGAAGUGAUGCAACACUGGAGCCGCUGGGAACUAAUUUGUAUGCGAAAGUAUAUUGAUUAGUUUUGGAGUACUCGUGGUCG
experimentalParameters: 30 °C
A bare number is all that is needed in reply.

CGGUAGCAAUAUUACGUGUC = -2.99
AAAGAGCAAUAUUACGAACA = -2.07
GUACAGCAAUAUUACGGCCU = -1.84
GUUGAGCAAUAUUACGUCUU = -1.53
GAUAAGCAAUAUUACGUGCA = -0.463
UCUCAGCAAUAUUACGGGAA = -2.28

Next sequence, please.
Q: Entry GCUAAGCAAUAUUACGUAUU has what self-splicing fitness (ln)?
Ans: -1.16

* * *

assayRemarks: self-splicing fitness, log relative to wild type (ln ratio); higher = more splicing; Tetrahymena group I intron in knt gene, E. coli kanamycin selection, DiMSum; sequences stand for … in CUCUCU…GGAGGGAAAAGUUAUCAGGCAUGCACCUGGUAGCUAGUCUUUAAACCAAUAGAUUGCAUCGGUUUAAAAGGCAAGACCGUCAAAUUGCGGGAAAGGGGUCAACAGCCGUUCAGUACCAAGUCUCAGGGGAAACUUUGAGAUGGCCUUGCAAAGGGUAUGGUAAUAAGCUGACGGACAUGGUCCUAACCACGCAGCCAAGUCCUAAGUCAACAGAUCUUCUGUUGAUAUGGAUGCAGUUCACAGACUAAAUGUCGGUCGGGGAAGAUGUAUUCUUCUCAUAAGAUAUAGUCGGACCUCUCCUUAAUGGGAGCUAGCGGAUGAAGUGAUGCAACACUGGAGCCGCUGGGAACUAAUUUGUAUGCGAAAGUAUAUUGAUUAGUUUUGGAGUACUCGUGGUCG
experimentalParameters: 37 °C
recordedEndpoint: self-splicing fitness (ln)
A bare number is all that is needed in reply.

GAUGAGCAAUAUUACGACAU = -1.02
AGAGAGCAAUAUUACGUUAG = -2.45
GGAUAGCAAUAUUACGUGUG = -1.19
AAGAAGCAAUAUUACGUAAG = -0.942
CAGAAGCAAUAUUACGUUGA = -1.53

Q: Entry CCGGAGCAAUAUUACGUGUG has what self-splicing fitness (ln)?
Ans: -1.05

Q: Entry ACAAAGCAAUAUUACGGACU has what self-splicing fitness (ln)?
Ans: 0.338

* * *

assayRemarks: self-splicing fitness, log relative to wild type (ln ratio); higher = more splicing; Tetrahymena group I intron in knt gene, E. coli kanamycin selection, DiMSum; sequences stand for … in CUCUCU…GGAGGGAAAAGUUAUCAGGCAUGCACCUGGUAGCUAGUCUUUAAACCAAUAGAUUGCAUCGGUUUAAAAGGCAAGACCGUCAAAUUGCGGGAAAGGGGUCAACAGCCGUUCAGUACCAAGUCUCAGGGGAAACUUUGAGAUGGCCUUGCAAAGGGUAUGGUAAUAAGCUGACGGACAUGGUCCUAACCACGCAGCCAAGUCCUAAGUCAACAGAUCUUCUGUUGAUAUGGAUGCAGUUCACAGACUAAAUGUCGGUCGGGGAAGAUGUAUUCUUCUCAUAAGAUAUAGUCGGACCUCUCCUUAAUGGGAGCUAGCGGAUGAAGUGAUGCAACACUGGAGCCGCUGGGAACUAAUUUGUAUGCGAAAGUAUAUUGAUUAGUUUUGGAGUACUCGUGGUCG
experimentalParameters: 37 °C
recordedEndpoint: self-splicing fitness (ln)

Consider the following illustrative entries.
AAACAGCAAUAUUACGCUCU = 0.413
CGGUAGCAAUAUUACGAGAG = -0.673
CAGGAGCAAUAUUACGCCGC = -1.58
CCAAAGCAAUAUUACGUGUU = -1.56
ACUCAGCAAUAUUACGAACG = -0.492

Q: Entry GGCUAGCAAUAUUACGGCGU has what self-splicing fitness (ln)?
Ans: -0.201

Q: Entry AUGCAGCAAUAUUACGCGAU has what self-splicing fitness (ln)?
Ans: -1.92

Q: Entry AACCAGCAAUAUUACGCGUG has what self-splicing fitness (ln)?
Ans: -0.149

Q: Entry AUCCAGCAAUAUUACGACCG has what self-splicing fitness (ln)?
Ans: -0.707

Q: Entry CCCGAGCAAUAUUACGAGUC has what self-splicing fitness (ln)?
Ans: -1.69

Q: Entry GGUUAGCAAUAUUACGCGCG has what self-splicing fitness (ln)?
Ans: 0.879

Q: Entry CUUAAGCAAUAUUACGCAAU has what self-splicing fitness (ln)?
Ans: -2.62
